System: Naegleria fowleri ATCC 30808 trophozoites
Test: In vitro amoebicidal activity, alamarBlue colorimetric assay, trophozoites
Settings: Naegleria fowleri, ATCC30808, read-out: Activity (IC50) N. fowleri ATCC 30808, text
Quantity measured: pIC50
Quick note: pIC50 values are minus log10 of concentrations in mol/L.

Lab note: COC(=O)C1(O)CC2OC1(C)n1c3ccccc3c3c4c(c5c6ccccc6n2c5c31)C(=O)NC4 (stereo not shown) [K252a (6), K252a] gave pIC50 of 6.47

====

# CC50 at 24 h per record follows
Test: Cytotoxicity assay, alamarBlue
Type: cell-based
Settings: mouse, J774A.1 macrophage cell line, 37 °C, mean ± SD, read-out: Murine Macrophage J774.A1 CC50

>>> data_value("COC1=C(C)O[C@@H]2C[C@@]1(OC)n1c3ccccc3c3c4c(c5c6ccccc6n2c5c31)C(=O)NC4 [SCZ B (4), streptocarbazole B]")
"> 20 µM"
>>> data_value("C[C@@H]1[C@H](O)[C@@H](C)/C=C/C=C/C=C/C=C/C=C/C=C/C=C/[C@H](O[C@@H]2O[C@H](C)[C@@H](O)[C@H](N)[C@@H]2O)C[C@@H]2O[C@](O)(C[C@@H](O)C[C@@H](O)[C@H](O)CC[C@@H](O)C[C@@H](O)CC(=O)O[C@H]1C)C[C@H](O)[C@H]2C(=O)O [Amphotericin B]")
"≥ 200 µM"

Lab note: CO[C@@H]1C(=O)C[C@H]2O[C@]1(C)n1c3ccccc3c3c4c(c5c6ccccc6n2c5c31)C(=O)NC4 [4′D4′OSTS (3), 4′-demethylamino-4′-oxostaurosporine] gave CC50 at 24 h of > 20 µM

Lab note: CCCCCCCCCCCCCCCCOP(=O)([O-])OCC[N+](C)(C)C [Miltefosine, miltefosine] gave CC50 at 24 h of 128 µM
